test system: Escherichia coli; assay: Agar diffusion antimicrobial test, Escherichia coli; assay type: cell-based; conditions: Gram−ve, modified Kirby–Bauer disk diffusion, 10 µg/mL
QUANTITY: Inhibition Zome, Escherichia coli (cm)

1. CC(C)C[C@H](NC(=O)c1cncc(C(=O)N[C@@H](CC(C)C)C(=O)O)c1)C(=O)O	0.64
2. CC(C)C[C@H](NC(=O)c1cncc(C(=O)N[C@@H](CC(C)C)C(=O)N/N=C/c2ccccc2)c1)C(=O)N/N=C/c1ccccc1 [Compound 10a]	0.66
3. CC(C)C[C@H](NC(=O)c1cncc(C(=O)N[C@@H](CC(C)C)C(=O)NN)c1)C(=O)NN	0.80
4. COc1ccc(/C(C)=N/NC(=O)[C@H](CC(C)C)NC(=O)c2cncc(C(=O)N[C@@H](CC(C)C)C(=O)N/N=C(\C)c3ccc(OC)cc3)c2)cc1	0.75
5. CC(C)C[C@H](NC(=O)c1cncc(C(=O)N[C@@H](CC(C)C)C(=O)NN2C(=O)c3ccccc3C2=O)c1)C(=O)NN1C(=O)c2ccccc2C1=O	0.75

====

Here, each record is paired with measured Inhibition Zome, Escherichia coli data.
system: Escherichia coli; assay: Agar diffusion antimicrobial test, Escherichia coli; format: cell-based; conditions: Gram−ve, modified Kirby–Bauer disk diffusion, 10 µg/mL
QUANTITY: Inhibition Zome, Escherichia coli (cm)

1) C/C(=N\NC(=O)[C@H](CC(C)C)NC(=O)c1cncc(C(=O)N[C@@H](CC(C)C)C(=O)N/N=C(\C)c2ccc(Cl)cc2)c1)c1ccc(Cl)cc1	0.92
2) O=C(N[C@H](CO)[C@H](O)c1ccc([N+](=O)[O-])cc1)C(Cl)Cl [Chloramphenicol, reference compound]	0.95
3) CC(C)C[C@H](NC(=O)c1cncc(C(=O)N[C@@H](CC(C)C)C(=O)N/N=C/c2ccc([N+](=O)[O-])cc2)c1)C(=O)N/N=C/c1ccc([N+](=O)[O-])cc1 [Compound 10d]	0.90
4) CC(C)C[C@@H]1NC(=O)c2cncc(c2)C(=O)N[C@@H](CC(C)C)C(=O)NN2C(=O)c3ccc4c5c(ccc(c35)C2=O)C(=O)N(NC(=O)[C@H](CC(C)C)NC(=O)c2cncc(c2)C(=O)N[C@@H](CC(C)C)C(=O)NN2C(=O)c3ccc5c6c(ccc(c36)C2=O)C(=O)N(NC1=O)C5=O)C4=O	0.64
5) COC(=O)[C@@H]1CCCCNC(=O)[C@H](CC(C)C)NC(=O)c2cncc(c2)C(=O)N[C@@H](CC(C)C)C(=O)N1	0.65
6) COC(=O)[C@H](CC(C)C)NC(=O)c1cncc(C(=O)N[C@@H](CC(C)C)C(=O)OC)c1	0.62

====

tested on: carrageenan-induced edema; assay: Carrageenan-induced edema (rat paw test); assay type: in vivo; conditions: dose 5.0 mg/kg oral, one hour before carrageenan; male albino rats, eight animals per group; paws excised four hours after drug administration
QUANTITY: % Protection against Edema (%)

1) O=C([O-])Cc1ccccc1Nc1c(Cl)cccc1Cl.[K+] [Diclofenac Potassium, reference compound]	75.23
2) CC(C)C[C@H](NC(=O)c1cncc(C(=O)N[C@@H](CC(C)C)C(=O)N/N=C/c2ccccc2)c1)C(=O)N/N=C/c1ccccc1 [Compound 10a]	99.10
3) CC(C)C[C@H](NC(=O)c1cncc(C(=O)N[C@@H](CC(C)C)C(=O)NN2C(=O)c3ccccc3C2=O)c1)C(=O)NN1C(=O)c2ccccc2C1=O	98.86
4) COC(=O)[C@H](CC(C)C)NC(=O)c1cncc(C(=O)N[C@@H](CC(C)C)C(=O)OC)c1	98.18
5) COC(=O)[C@@H]1CCCCNC(=O)[C@H](CC(C)C)NC(=O)c2cncc(c2)C(=O)N[C@@H](CC(C)C)C(=O)N1	99.08
6) C/C(=N\NC(=O)[C@H](CC(C)C)NC(=O)c1cncc(C(=O)N[C@@H](CC(C)C)C(=O)N/N=C(\C)c2ccc(Cl)cc2)c1)c1ccc(Cl)cc1	93.16
7) CC(C)C[C@@H]1NC(=O)c2cncc(c2)C(=O)N[C@@H](CC(C)C)C(=O)NN2C(=O)c3ccc4c5c(ccc(c35)C2=O)C(=O)N(NC(=O)[C@H](CC(C)C)NC(=O)c2cncc(c2)C(=O)N[C@@H](CC(C)C)C(=O)NN2C(=O)c3ccc5c6c(ccc(c36)C2=O)C(=O)N(NC1=O)C5=O)C4=O	99.36
8) COc1ccc(/C(C)=N/NC(=O)[C@H](CC(C)C)NC(=O)c2cncc(C(=O)N[C@@H](CC(C)C)C(=O)N/N=C(\C)c3ccc(OC)cc3)c2)cc1	92.92
